Molecular target: BmOr-1 (Bombyx mori)
Construct: with BmOrco
Sequence (Q5WA61 1-430): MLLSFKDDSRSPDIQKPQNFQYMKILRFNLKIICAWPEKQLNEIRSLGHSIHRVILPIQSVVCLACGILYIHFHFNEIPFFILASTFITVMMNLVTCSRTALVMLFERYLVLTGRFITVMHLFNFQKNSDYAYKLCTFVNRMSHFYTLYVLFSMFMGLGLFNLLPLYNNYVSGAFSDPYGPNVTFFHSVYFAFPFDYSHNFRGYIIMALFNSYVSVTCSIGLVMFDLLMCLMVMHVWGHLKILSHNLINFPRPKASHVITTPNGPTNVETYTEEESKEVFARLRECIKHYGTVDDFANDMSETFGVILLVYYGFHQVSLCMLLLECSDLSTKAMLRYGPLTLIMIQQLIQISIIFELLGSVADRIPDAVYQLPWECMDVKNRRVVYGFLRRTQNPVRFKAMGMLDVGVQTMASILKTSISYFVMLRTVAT
Sequence (Q7YT34 1-472 partner): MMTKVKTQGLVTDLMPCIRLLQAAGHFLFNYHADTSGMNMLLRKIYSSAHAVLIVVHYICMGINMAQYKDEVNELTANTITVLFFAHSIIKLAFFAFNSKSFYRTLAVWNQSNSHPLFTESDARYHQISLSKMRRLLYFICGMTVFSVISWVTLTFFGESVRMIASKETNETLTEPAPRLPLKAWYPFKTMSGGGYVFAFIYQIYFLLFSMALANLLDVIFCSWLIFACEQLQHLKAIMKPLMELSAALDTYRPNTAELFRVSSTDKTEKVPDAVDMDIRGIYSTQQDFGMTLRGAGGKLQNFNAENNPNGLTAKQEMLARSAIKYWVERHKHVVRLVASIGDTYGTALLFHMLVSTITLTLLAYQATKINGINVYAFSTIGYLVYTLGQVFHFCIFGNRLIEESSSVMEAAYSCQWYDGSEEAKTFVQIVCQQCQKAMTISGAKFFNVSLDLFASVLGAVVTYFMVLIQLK
Test: two-electrode voltage clamp in Xenopus oocytes, dose-response
PROPERTY: EC50 (µM)
Report only the number, with the unit µM understood.

Recorded result, `CCC/C=C\C=C\CCCCCCCCCO` , EC50: 8.2

These entries and their values trace back to paper PMC3670925.
